Taken from PubChem BioAssay.

# measurement.protocol: PSAC antagonists in infected red cells, primary screen, cell-based, P. falciparum Indochina, OD700, 18 h (AID 1157)
# test.settings: P. falciparum Indochina infected erythrocytes, osmotic lysis OD700, 18 h; higher = more signal, called active from +8 up or from −8 down
Decision: z-score >= 0.8 yields TRUE, all other cases yield FALSE.

Does CN1C(=O)C2C(C1=O)C1C=C(c3ccc(CO)cc3)C2C(c2cccs2)N1C (stereo not drawn) have a reported z-score of at least 0.8?
FALSE

Hi, just wondering whether CC(C)C[C@H]1NC(=O)[C@@]23C(=O)N[C@@H](Cc4ccccc4)C2[C@H](C)[C@@]2(C)O[C@H]2C3/C=C/C/C=C\CNC(=O)[C@@H]2CCCN2C1=O (stereo partly drawn) shows z-score of 0.8 or higher.
FALSE
